Values from patent US7101851

- assayed system: T1, alpha subunit of the human FcεRI receptor (IgE high affinity receptor), expressed on Chinese hamster ovary … (human, UniProt P12319 26-257)
- T1 construct: whole, on cells; also called CHO FcεRI+ cells; FcεRIα
- T1 sequence (looked up): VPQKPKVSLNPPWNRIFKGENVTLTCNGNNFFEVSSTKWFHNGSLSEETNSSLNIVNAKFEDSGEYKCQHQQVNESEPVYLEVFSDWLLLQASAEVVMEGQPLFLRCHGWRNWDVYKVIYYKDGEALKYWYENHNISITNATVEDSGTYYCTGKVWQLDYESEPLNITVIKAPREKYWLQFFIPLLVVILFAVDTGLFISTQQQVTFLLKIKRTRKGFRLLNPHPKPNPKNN
- experiment notes: inhibition of 125I-IgE binding to CHO cells expressing human FcεRI alpha; competitor IgE
Bridges are numbered along the chain shown (N, C = ends). Where no end group is shown, it is not given here. [ ]: non-standard residue; d: D form. dPip = O=C(O)[C@H]1CCCCN1
pIC50 for assorted binders
FYI, pIC50 means -log10 of a concentration in mol per litre.

// below: answered binders
| binder | measured property | recorded value |
| --- | --- | --- |
| VQCPHFCYELDYELCPDVCYVGR (not fully specified (bridges); cysteine pairing not given here, produced as Z-domain fusion in E. coli and released with trypsin) [IGE156] | pIC50 | 7.52 |
| VQCPHFCYFGGAELCPGVCYV-NH2 (cysteine pairing not given here) [IGE136] | pIC50 | 6.92 |
| IVCARLCYVGGKALCPDVCYV-NH2 (not fully specified (bridges); cysteine pairing not given here) [IGE127] | pIC50 | 4.89 |
| IVCPRLCYVGGKALCPDVCYV-NH2 (not fully specified (bridges); cysteine pairing not given here) [IGE120] | pIC50 | 6.54 |
| VQC[dPip]HFCYFGGAELCPDVCYV-NH2 (disulfide 7-15, 3-19) [IGE162-1] | pIC50 | 5.39 |

Field request: pIC50 | item: VPCPELCYVGGKALCPDVCYV-NH2 (not fully specified (bridges); cysteine pairing not given here) [IGE124]
6.05
